target: HIV-1 protease (Human immunodeficiency virus type 1 group M subtype B)
Construct: The protease (or proteinase), consisting of only 99 amino acids, is among the smallest enzymes known
methodNotes: In vitro HIV protease inhibitory assay (HIV Protease FITC Assay)
Format: biochemical
conditionContext: HIV-1 Dose 33.000 uM; read-out: HIV-1 Protease % Inhib
assayMetric: inhibition at 33 µM (%)

>>> print(df.to_string())
                                   compound                                    target  quantityunit  measured
0  CC(C)(C)c1nc(CCc2cc(O)c(C(c3ccccc3)C3CC3)c(=O)o2)no1 (stereo not drawn)  HIV-1 protease (Human immunodeficiency virus type 1 group M subtype B)             %       106
1  O=c1oc(CCCCN2CCOCC2)cc(O)c1C(c1ccccc1)C1CC1 (stereo not drawn)  HIV-1 protease (Human immunodeficiency virus type 1 group M subtype B)             %      31.3
2  C=CC(C1=C(O)CC2(CCC3(CC2)OCCO3)OC1=O)c1ccccc1 (stereo not drawn)  HIV-1 protease (Human immunodeficiency virus type 1 group M subtype B)             %       101

----------
target: HIV-1 protease (Human immunodeficiency virus type 1 group M subtype B, UniProt P04585)
Construct: The protease (or proteinase), consisting of only 99 amino acids, is among the smallest enzymes known
methodNotes: In vitro HIV protease inhibitory assay (HIV Protease FITC Assay)
Assay type: biochemical
conditionContext: HIV-1 Dose 0.123 uM; read-out: HIV-1 Protease % Inhib
Method: The HIV protease screening assay is based on a fluorescently labeled substrate which can be resolved from nonlabeled cleavage product using avidin-polystyrene particles, 0.7-0.9 µm. […] The labeled cleavage product is separated from the unreacted substrate via filtration and is read on the Idexx Screen Machine. The data are analyzed by appropriate computer algorithms to ascertain percent inhibition values.
assayMetric: inhibition at 0.123 µM (%)

                                    molecule                                    target             assaymetric  censorsymbol  measured
 0  CCC(Cc1ccc(Br)cc1)c1cc(O)c(C(c2ccccc2)C2CC2)c(=O)o1 (stereo not shown)  HIV-1 protease (Human immunodeficiency virus type 1 group M subtype B, UniProt P04585)  inhibition at 0.123 µM             =      15.7
 1  C=CC(C1=C(O)CC(CCC)(CCc2ccccc2)OC1=O)c1ccccc1 (stereo not shown)  HIV-1 protease (Human immunodeficiency virus type 1 group M subtype B, UniProt P04585)  inhibition at 0.123 µM             =      23.5
 2  CCC(c1cc(O)c(C(c2ccccc2)C2CC2)c(=O)o1)C(O)c1ccccc1 (stereo not shown)  HIV-1 protease (Human immunodeficiency virus type 1 group M subtype B, UniProt P04585)  inhibition at 0.123 µM             =      36.4
 3  CCC(Cc1ccccc1)c1cc(O)c(C(c2cccc(NC(=O)Cc3cccnc3)c2)C2CC2)c(=O)o1 (stereo not shown)  HIV-1 protease (Human immunodeficiency virus type 1 group M subtype B, UniProt P04585)  inhibition at 0.123 µM             <        10
 4  CCC(Cc1ccccc1)c1cc(O)c(C(c2cccc(NC(=O)[C@H](C)NC(=O)OC(C)(C)C)c2)C2CC2)c(=O)o1 (stereo partly shown)  HIV-1 protease (Human immunodeficiency virus type 1 group M subtype B, UniProt P04585)  inhibition at 0.123 µM             =      43.1
 5  CCCCC1(Cc2ccccc2)CC(O)=C(C(CC)c2ccccc2)C(=O)O1 (stereo not shown)  HIV-1 protease (Human immunodeficiency virus type 1 group M subtype B, UniProt P04585)  inhibition at 0.123 µM             <        10
 6  CCC(Cc1ccccc1)c1cc(O)c(C(c2cccc(NS(=O)(=O)c3cccc4cccnc34)c2)C2CC2)c(=O)o1 (stereo not shown)  HIV-1 protease (Human immunodeficiency virus type 1 group M subtype B, UniProt P04585)  inhibition at 0.123 µM             =      52.2
 7  CCC(Cc1cccnc1)c1cc(O)c(C(c2ccccc2)C2CC2)c(=O)o1 (stereo not shown)  HIV-1 protease (Human immunodeficiency virus type 1 group M subtype B, UniProt P04585)  inhibition at 0.123 µM             <        10
 8  C=CC(C1=C(O)CC(CCc2ccccc2)(CC(C)C)OC1=O)c1ccccc1 (stereo not shown)  HIV-1 protease (Human immunodeficiency virus type 1 group M subtype B, UniProt P04585)  inhibition at 0.123 µM             <        10
 9  CCC(C1=C(O)CC2(CCCC2)OC1=O)c1ccccc1 (stereo not shown)  HIV-1 protease (Human immunodeficiency virus type 1 group M subtype B, UniProt P04585)  inhibition at 0.123 µM             <        10
10  CCC(Cc1ccccc1)c1cc(O)c(C(c2cccc(NS(=O)(=O)c3ccc(Br)cc3)c2)C2CC2)c(=O)o1 (stereo not shown)  HIV-1 protease (Human immunodeficiency virus type 1 group M subtype B, UniProt P04585)  inhibition at 0.123 µM             =      32.6
11  CCC(CC1CCCOC1)c1cc(O)c(C(CC)c2ccccc2)c(=O)o1 (stereo not shown)  HIV-1 protease (Human immunodeficiency virus type 1 group M subtype B, UniProt P04585)  inhibition at 0.123 µM             =      12.4
12  CCCC1(CCc2ccccc2)CC(O)=C(C(c2ccc(COCOC)s2)C2CC2)C(=O)O1 (stereo not shown)  HIV-1 protease (Human immunodeficiency virus type 1 group M subtype B, UniProt P04585)  inhibition at 0.123 µM             <        10
13  O=c1oc(CC(O)c2ccccc2Cl)cc(O)c1C(c1ccccc1)C1CC1 (stereo not shown)  HIV-1 protease (Human immunodeficiency virus type 1 group M subtype B, UniProt P04585)  inhibition at 0.123 µM             <        10
14  CCCC1(CCc2ccccc2)CC(O)=C(/C(=C/c2ccccc2)c2ccccc2)C(=O)O1 (stereo not shown)  HIV-1 protease (Human immunodeficiency virus type 1 group M subtype B, UniProt P04585)  inhibition at 0.123 µM             <        10
15  CCC(CC1CCCN(S(=O)(=O)c2ccc(C)cc2)C1)c1cc(O)c(C(c2ccccc2)C2CC2)c(=O)o1 (stereo not shown)  HIV-1 protease (Human immunodeficiency virus type 1 group M subtype B, UniProt P04585)  inhibition at 0.123 µM             <        10

----------
target: HIV-1 protease (Human immunodeficiency virus type 1 group M subtype B, UniProt P04585)
Construct: The protease (or proteinase), consisting of only 99 amino acids, is among the smallest enzymes known
methodNotes: In vitro HIV protease inhibitory assay (HIV Protease FITC Assay)
Format: biochemical
conditionContext: HIV-1 Dose 3.300 uM; read-out: HIV-1 Protease % Inhib
Here, each record is paired with measured inhibition at 3.3 µM data.
assayMetric: inhibition at 3.3 µM (%)

                                   molecule                                    target  quantityunit  measured
0  CCC(C1=C(O)CC(CCc2ccccc2)(CC(C)C)OC1=O)c1ccccc1 (stereo not shown)  HIV-1 protease (Human immunodeficiency virus type 1 group M subtype B, UniProt P04585)             %      81.1
1  CCC(Cc1ccccc1)c1cc(O)c(C2(c3ccccc3)CCC2)c(=O)o1 (stereo not shown)  HIV-1 protease (Human immunodeficiency virus type 1 group M subtype B, UniProt P04585)             %      27.5
2  CCCS(=O)(=O)Nc1cccc(C(c2c(O)cc(C(CC)Cc3ccccc3)oc2=O)C2CC2)c1 (stereo not shown)  HIV-1 protease (Human immunodeficiency virus type 1 group M subtype B, UniProt P04585)             %      94.4
3  C=CC(C1=C(O)CC(CCCC)(Cc2ccccc2)OC1=O)c1ccccc1 (stereo not shown)  HIV-1 protease (Human immunodeficiency virus type 1 group M subtype B, UniProt P04585)             %      65.6

----------
target: HIV-1 protease (Human immunodeficiency virus type 1 group M subtype B, UniProt P04585)
Construct: The protease (or proteinase), consisting of only 99 amino acids, is among the smallest enzymes known
methodNotes: In vitro HIV protease inhibitory assay (HIV Protease FITC Assay)
Assay type: biochemical
conditionContext: HIV-1 Dose 1.100 uM; read-out: HIV-1 Protease % Inhib
Here, each record is paired with measured inhibition at 1.1 µM data.
assayMetric: inhibition at 1.1 µM (%)

In [3]: df
Out[3]:
                                   compound                                    target           assaymetric  quantityunit  measured
0  O=c1oc(CC(O)c2cccc(Cl)c2)cc(O)c1C(c1ccccc1)C1CC1 (stereo not shown)  HIV-1 protease (Human immunodeficiency virus type 1 group M subtype B, UniProt P04585)  inhibition at 1.1 µM             %      25.4
1  CCS(=O)(=O)Nc1cccc(C(c2c(O)cc(C(CC3CC3)CC3CCCOC3)oc2=O)C2CC2)c1 (stereo not shown)  HIV-1 protease (Human immunodeficiency virus type 1 group M subtype B, UniProt P04585)  inhibition at 1.1 µM             %      81.9
2  CCC(Cc1ccccc1)c1cc(O)c(C(c2cccc(NS(=O)(=O)c3ccc(C#N)cc3)c2)C2CC2)c(=O)o1 (stereo not shown)  HIV-1 protease (Human immunodeficiency virus type 1 group M subtype B, UniProt P04585)  inhibition at 1.1 µM             %      94.5
3  O=c1oc(CC(O)c2ccc(F)cc2)cc(O)c1C(c1ccccc1)C1CC1 (stereo not shown)  HIV-1 protease (Human immunodeficiency virus type 1 group M subtype B, UniProt P04585)  inhibition at 1.1 µM             %        52
